target: T1, human EGFRvIII protein on the cell surface (human, UniProt P00533 25-1210); assay: FACS on U87MG-hEGFRvIII cells
T1 construct: whole, on cells; the cell line is named under assay; also called hEGFRvIII; U87MG-hEGFRvIII
Recorded metric: pEC50
By convention, pEC50 is the negative base-10 log of a molar concentration.

Would you please look over these solved cases?
Binder	pEC50
Chimeric antibody 75G7 (antibody, human IgG1, V domains shown, also called c75G7C6; chimeric antibody c75G7C6) VH: EVQLQQSGPELVKPGASVKIPCKASGYTFTDYNMDWVKQSHGKSLEWIGDINPNNGDTIYNQKFKGKATLTVDKSSSTAYMELRSLTSEDTAVYYCARGDYDGYYPVYYAMDYWGQGTSVTVSS VL: ENVLTQSPAIMSASPGEKVTMTCRASSSVSSSYLHWYQQKSGASPKLWIFSTSNLAAGVPARFSGSGSGTSYSLTVSSVEAEDAATYYCQQYSGYPLTFGAGTKLELK	8.21
Chimeric antibody 64F1 (antibody, human IgG1, V domains shown, also called clone 64F1F8) VH: QVQLQQSGAELARPGASVKMSCKASGYTFSSYTMHWAKQRPGQGLEWIGYINPSSGYTKYNQKFKDKATLTADKSSSTAYMQLSSLTSEDSIVYYCARGGGRGFAYWGQGTLVTVSA VL: QIVLTQSPAIMSASPGERVTMTCSASSSVSYMYWYQQKPGSSPRLLIYDTSNLASGVPVRFSGSGSGTSYSLTISRVEAEDAATYYCQQWSSYSLTFGAGTKLELK	8.68
Chimeric antibody 7E5 (antibody, human IgG1, V domains shown, also called clone 7E5-2A9) VH: EIQLQQSGPELVKPGASVKVSCKASGYSFTDYNMYWVKQSHGKSLEWIGYVDPSNGGTNYNQKFKGKATLTVDKSSSTAFMHLNSLTSEDSAVYYCARGFFDYWGQGTTLTVSS VL: DIVMTQSPSSLTVTAGEKVTMSCKSSQSLLNSGNQKNYLTWYQQKPGQPPKLLIYWASNRESGVPDRFTGSGSGKDFTLTISSVQAEDLAVYYCQNDYRYPVTFGAGTKLELK	8.72

Note: attention shifts to another entry.
Report pEC50 for Chimeric antibody 63A10 (antibody, human IgG1, V domains shown, also called c63A10A7; chimeric antibody c63A10A7) VH: QVQLQQSGAELARPGASVKMSCKASGYTFISFTMHWVKQRPGQGLEWIGYINPNSGYTKYNQKFKDKATLTAGQSSSTAYMQLSSLTSEDSAVYYCTRGGGRGFAYWGQGTLVTVSA VL: DILMTQSPSSMSVSLGDTVTITCHASQDINSNIGWLQQKPGKSFKALIYHGTNLEDGVPSRFSGSGSGADYSLTISSLESEDFADYYCVQYAQFPFTFGSGTKLEIK
8.66
